Data provenance: patent US20260131011A1

- Target Or Test System: RSVB18537
pEC50: −log10 of the molar value. No end group written: not given here.
Value Type: pEC50

Please look up its pEC50: VALDPIDISIELNKAKSDLEESKEWIRRSNQKLDSI (also: conjugated to cholesterol) [HPIV3_3004 (native) HR2 ligand conjugated to cholesterol (Peptide Conjugate 12)]
> 7.40
